The origin of these recorded values is PubChem BioAssay AID504382.

Exercise: for every item that follows, state its recorded fluorescence artifact activation.
- method_summary: IANBD-channel fluorescence artefacts in buffer – biochemical, artefact control for cardiac RTF calcium sensitizer project, confirmation (AID 504382)
- run_parameters: IANBD fluorescence interference counterscreen, EC20 Ca2+, at 7.2 µM, active compounds read high
In all, about 2,500 compounds went through this assay and about 460 (18%) were called active. These entries were drawn from the full list.
Numbers only, in %.

// solved cases for fluorescence artifact activation follow
> print(dat)
                                   compound  result.unit  numeric.value
1  Cc1ccc(N2C(=O)NC(=O)/C(=C\c3ccoc3)C2=O)cc1            %           0.07
2             Cc1cc(C=C(C#N)C#N)ccc1N1CCCC1            %           0.79
3  COC(=O)[C@H]1C[C@@H]1[C@H](NP(=O)(c1ccccc1)c1ccccc1)c1ccccc1            %           0.01
4  CCN(CC)c1ccc(C=C2C(=O)N(C)C(=S)N(C)C2=O)o1            %          -0.01
5  COC(=O)C1=C(c2cccc(C#N)c2)C[C@@H]2CC[C@H]1N2C(=O)N1CCOCC1            %           1.36

Report fluorescence artifact activation for each item below.
1. O=c1[nH]c(O)c(C=Nc2ccccc2Oc2ccccc2)c(=O)[nH]1
2. N#CC(C#N)=Cc1ccc(-c2ccccc2F)o1
3. CCN(CC)C(=O)c1ccc(NC(=O)COc2ccc([N+](=O)[O-])cc2Cl)cc1
4. CN1C(=O)C(=Cc2sc(=O)n(-c3ccccc3)c2N2CCCCC2)C(=O)N(C)C1=O
5. Cc1cc(Cl)ccc1C(=O)C1CCCN(C2CCSCC2)C1 (stereo unspecified)
6. CN1CCN(Cc2cn(C)c3ccccc23)CC1CCO (stereo unspecified)

Result string:
0.37
6.89
0.19
-0.07
0
10.6

List the reported fluorescence artifact activation of each compound below.
1. CCOCCCNC(=O)C1c2cc(OC)c(OC)cc2C(=O)N2CCCCC12 (stereo unspecified)
2. Cc1cccc(N2C(=O)NC(=O)/C(=C\c3ccc4c(c3)CCCN4Cc3ccccc3)C2=O)c1
3. C=CCN1C(=O)/C(=C\c2ccc(N3CCOCC3)o2)C(=O)NC1=S

Result string:
1. 0.42
2. 0.72
3. 0.23

Each compound below has a recorded value; state its fluorescence artifact activation.
1. NC(=O)c1c(NC(=O)c2ccc(S(=O)(=O)N(CCCl)CCCl)cc2)sc2c1CCCCC2
2. CC(C)C[C@H]1C(=O)N2CCC[C@H]2[C@]2(O)O[C@](NC(=O)[C@@H]3C=C4c5cccc6[nH]cc(c56)C[C@H]4N(C)C3)(C(C)C)C(=O)N12
3. CCN(CC)CCCOC(=O)C(OC(C)C)(c1ccccc1)c1ccccc1
4. CC1=C[C@@H]2c3cccc4[nH]cc(c34)C[C@H]2N(C)C1
5. FC(F)(F)c1ccc2c(c1)nnn2C1CCN(Cc2nnnn2Cc2ccccc2)CC1
6. Cc1cc(N2CCCC2)ccc1C=C(C#N)C#N
7. CNS(=O)(=O)c1ccc(N=Cc2c(O)n(-c3ccccc3)c(=O)[nH]c2=O)cc1

Result string:
0.08
0.12
17.1
14.5
0.25
17.8
8.1
